test: Chemical stability of the compound assessed as compound remaining after 16 hrs by HPLC analysis; type: physicochemical; settings: read-out: Activity
Known remaining at 16 h of a selection of compounds
Kindly answer with a numeric value in %, unit omitted.

COc1cc2c(cc1OC)N(CCCCNC(=O)c1cc(Br)cc(OC)c1OC)CCC2: 90

Turning now to a further compound:
So what does the record say about remaining at 16 h for COc1cc2c(cc1OC)N(CCCCNC(=O)c1cc(Br)cc(OC)c1OC)CC2 ?
86

====

tested on: sigma1/sigma2 receptors (Cavia porcellus); test: Selectivity ratio, ratio of Ki for guinea pig sigma1 receptor to Ki for guinea pig sigma2 receptor
quantityKind: Ratio Ki
No unit in the answer, only the number.

The following compounds have reported results that may help.
COc1cc2c(cc1OC)CCN(CCCCNC(=O)c1cc(Br)cc(OC)c1OC)CC2: 8.5
COc1cc2c(cc1OC)CN(CCCCNC(=O)c1cc(Br)cc(OC)c1OC)CCC2: 6.58
COc1cc2c(cc1OC)N(CCCCNC(=O)c1cc(Br)cc(OC)c1OC)CCC2: 0.77
COc1ccc(CCNCCCCNC(=O)c2cc(Br)cc(OC)c2OC)cc1OC: 0.2
COc1cc2c(cc1OC)N(CCCCNC(=O)c1cc(Br)cc(OC)c1OC)CC2: 0.47

Report Ratio Ki for COc1cc2c(cc1OC)CN(CCCCNC(=O)c1cc(Br)cc(OC)c1OC)C2 tested on sigma1/sigma2 receptors (Cavia porcellus).
1760

====

target: Sigma non-opioid intracellular receptor 1 (Cavia porcellus); test: Displacement of [3H]-(+)-pentazocine from Sigma1-receptor in guinea pig brain membrane
Sequence (Q60492 whole entry): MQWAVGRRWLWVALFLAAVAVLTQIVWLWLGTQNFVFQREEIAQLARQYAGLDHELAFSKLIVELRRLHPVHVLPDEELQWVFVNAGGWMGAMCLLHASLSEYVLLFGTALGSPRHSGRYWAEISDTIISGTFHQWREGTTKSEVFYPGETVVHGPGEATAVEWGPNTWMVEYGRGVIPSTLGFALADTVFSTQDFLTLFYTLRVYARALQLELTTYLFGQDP
Known pKi of a selection of compounds
Scale explanation: pKi corresponds to minus log10 of a concentration expressed in moles per litre.

The following compounds have reported results that may help.
COc1cc2c(cc1OC)N(CCCCNC(=O)c1cc(Br)cc(OC)c1OC)CC2: 5.34
COc1cc2c(cc1OC)CCN(CCCCNC(=O)c1cc(Br)cc(OC)c1OC)CC2: 5.29
COc1cc2c(cc1OC)N(CCCCNC(=O)c1cc(Br)cc(OC)c1OC)CCCC2: 5.59

So what does the record say about pKi for COc1cc2c(cc1OC)N(CCCCNC(=O)c1cc(Br)cc(OC)c1OC)CCC2 ?
5.35

So what does the record say about pKi for COc1cc2c(cc1OC)CN(CCCCNC(=O)c1cc(Br)cc(OC)c1OC)CCC2 ?
5.68

So what does the record say about pKi for COc1cc2c(cc1OC)CN(CCCCNC(=O)c1cc(Br)cc(OC)c1OC)C2 ?
5.84

====

assay: Displacement of [3H]ditolylguanidine from sigma2 receptor in guinea pig brain membrane; type: cell membranes, Cavia porcellus
Bucketed by reported Ki, buckets being class 1 (below 300 nM), class 2 (300 nM to below 5000 nM), class 3 (5000 nM or more)

Answered examples (5):
COc1cc2c(cc1OC)N(CCCCNC(=O)c1cc(Br)cc(OC)c1OC)CC2: class 3
COc1cc2c(cc1OC)N(CCCCNC(=O)c1cc(Br)cc(OC)c1OC)CCCC2: class 3
COc1ccc(CCNCCCCNC(=O)c2cc(Br)cc(OC)c2OC)cc1OC: class 2
COc1cc2c(cc1OC)CN(CCCCNC(=O)c1cc(Br)cc(OC)c1OC)CC2: class 1
COc1cc2c(cc1OC)CN(CCCCNC(=O)c1cc(Br)cc(OC)c1OC)CCC2: class 2

// switching to the query compound
Which category does the recorded Ki put COc1ccc(CCN(C)CCCCNC(=O)c2cc(Br)cc(OC)c2OC)cc1OC in?
class 2

====

test: Chemical stability of the compound assessed as compound remaining after 44 hrs by HPLC analysis; type: physicochemical; settings: read-out: Activity
quantityKind: remaining at 44 h
The reply should consist of the numeric value with the unit placed after it.

So what does the record say about remaining at 44 h for COc1cc2c(cc1OC)N(CCCCNC(=O)c1cc(Br)cc(OC)c1OC)CCC2 ?
38%

====

Known pKi of a selection of molecules
assay: Displacement of [3H]ditolylguanidine from sigma2 receptor in guinea pig brain membrane; format: cell membranes, Cavia porcellus
Scale explanation: pKi corresponds to minus log10 of a concentration expressed in moles per litre.

The following molecules have reported results that may help.
COc1ccc(CCN2CCN(CCCc3ccccc3)CC2)cc1OC [[11C]SA4503]: 7.05
COc1cc2c(cc1OC)CN(CCCCNC(=O)c1cc(Br)cc(OC)c1OC)C2: 9.09
COc1cc2c(cc1OC)N(CCCCNC(=O)c1cc(Br)cc(OC)c1OC)CCC2: 5.23

Turning now to a further molecule:
So what does the record say about pKi for COc1cc2c(cc1OC)CCN(CCCCNC(=O)c1cc(Br)cc(OC)c1OC)CC2 ?
6.13

Taken from ChEMBL document CHEMBL1681788.
